Reported IC50 values are given for each entry in this list.
Biological target: PDK1 (Homo sapiens (Human))
Sequence (O15530 51-359): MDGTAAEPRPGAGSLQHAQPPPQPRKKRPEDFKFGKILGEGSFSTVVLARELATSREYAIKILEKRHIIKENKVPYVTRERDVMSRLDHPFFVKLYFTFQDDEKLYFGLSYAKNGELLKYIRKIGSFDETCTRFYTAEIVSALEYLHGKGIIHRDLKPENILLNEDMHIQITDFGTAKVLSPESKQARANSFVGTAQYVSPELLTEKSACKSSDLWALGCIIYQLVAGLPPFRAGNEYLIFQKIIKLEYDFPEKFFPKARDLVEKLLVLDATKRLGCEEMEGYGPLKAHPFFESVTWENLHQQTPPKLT
Assay: PDK1 kinase assay (coupled PDK1/AKT/FAM-crosstide assay, IMAP fluorescence polarization)
Assay type: biochemical
Settings: inhibition of phospo-PDK1 in vitro

Incoming: For the compound `CC(C)Oc1cc(CNc2ncccc2C(=O)N[C@@H](C)c2ccccc2)cc(-c2c[nH]c3ncc(C(=O)NC4CC4)cc23)c1` , give its measured IC50 value.
Outgoing: < 100 nM

* * *

Reported pIC50 values are given for each entry in this list.
Target: PDK1 (Homo sapiens (Human))
Assay: PDK1 kinase assay (coupled PDK1/AKT/FAM-crosstide assay, IMAP fluorescence polarization)
Assay type: biochemical
Settings: inhibition of phospo-PDK1 in vitro
pIC50: −log10 of the molar value. Structures can show the parent of a compound that is named as a salt.

Incoming: For the molecule C[C@H](COc1ccc2c(c1)NC(=O)/C2=C\c1cnc[nH]1)Nc1ncccc1C(=O)NCc1ccc(F)c(F)c1 [Example 24] , give its measured pIC50 value.
Outgoing: > 7.00

Incoming: For the molecule CN(Cc1ccc(F)c(F)c1)C(=O)c1nccnc1NCc1ccc(-c2ccc3ncnc(N)c3c2)s1 [Example 3.84, (TFA salt)] , give its measured pIC50 value.
Outgoing: 6.00 to 7.00

Incoming: For the molecule O=C(NCc1ccc(F)c(F)c1)c1cccnc1NCc1cc(-c2c[nH]c3ncccc23)cs1 [Ex. 6.15] , give its measured pIC50 value.
Outgoing: 6.00 to 7.00

Incoming: For the molecule C[C@H](NC(=O)c1cc(F)cnc1NCc1ccc(-c2ccc3ncnc(N)c3c2)s1)c1ccc(F)cc1 [Example 7.3.2] , give its measured pIC50 value.
Outgoing: > 7.00

Incoming: For the molecule CCC(C)NS(=O)(=O)c1cnc(NCc2ccc(-c3ccc4ncnc(N)c4c3)s2)c(C(=O)NCc2ccc(F)c(F)c2)c1 (stereo not shown) [Example 8.7.10] , give its measured pIC50 value.
Outgoing: 6.00 to 7.00

Incoming: For the molecule O=C(NCc1ccc(F)c(F)c1)c1cccnc1NCc1ccc(-c2ccn3ncnc3c2)s1 [Example 8.14.4] , give its measured pIC50 value.
Outgoing: 5.30 to 6.00

Incoming: For the molecule C[C@H](NC(=O)c1cccnc1NCc1ccc(-c2ccc3ncc(N)nc3c2)s1)c1ccc(F)c(F)c1 [Example 4.30] , give its measured pIC50 value.
Outgoing: 6.00 to 7.00
